# tested-system: DLG4_1, P78352
# Sequence (P78352 62-152): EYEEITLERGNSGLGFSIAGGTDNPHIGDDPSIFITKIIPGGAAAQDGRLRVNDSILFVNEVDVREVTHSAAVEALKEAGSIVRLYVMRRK
# assay-comment: holdup assay
# Set-up: key: below the threshold = too weak to quantify, mostly under pKd 3.1 to 4
# measurement-context: plain residues with an end cap or a label only (N-terminal biotin on a linker: ado-ado)
quantity-kind: pKd

[[record]]
binder = "EKKTLIGIKL [GOT1L1, Q8NHS2]"
quantity_kind = "pKd"
experimental_result = "below the threshold"

[[record]]
binder = "IPLDGETEEL [MYOZ1, Q9NP98]"
quantity_kind = "pKd"
experimental_result = "below the threshold"

[[record]]
binder = "DTTVPESEDL [MYOZ2, Q9NPC6]"
quantity_kind = "pKd"
experimental_result = "below the threshold"

[[record]]
binder = "HLRARKSEWV [GJD4, Q96KN9]"
quantity_kind = "pKd"
experimental_result = "below the threshold"


-- ask Which measured pKd value corresponds to LPHGHSTTRV [NLGN4X, Q8N0W4] ?
-- reply 3.51

-- ask # query: pKd of entry QGPVETESVV [SLC45A4, Q5BKX6]
-- reply 4.33

-- ask What does the data say about its pKd? Entry: SARSRLSSNL [HCN2, Q9UL51]
-- reply below the threshold

-- ask Bench note: what pKd did DDPSTAETVL [ABCA7, Q8IZY2] show?
-- reply below the threshold

-- ask Could you tell me which pKd is on file for DDEDRLVIEI [ZNF831, Q5JPB2] ?
-- reply below the threshold

-- ask Query (binder): IKAIVDLTGL [TRAF2, Q12933] ; field requested: pKd
-- reply below the threshold

Data origin, for the record: paper PMC9482650
